Data origin, for the record: ChEMBL document CHEMBL1155966

tested on: Radical scavenging activity; assay: Antioxidant activity assessed as DPPH radical scavenging activity; type: functional
result-type: pIC50
Convention used: pIC50 is expressed as -log10 of the molar concentration.

Inquiry: Any idea what pIC50 came out for O=C(NC1=CC(=O)[C@H]2O[C@H]2[C@H]1O)c1ccccc1O [DEHYDROXYMETHYLEPOXYQUINOMICIN] on Radical scavenging activity?
Reply text: 4.24
